- System: SNB-75
- assay: NCI tumour cell line growth inhibition, 48 h
Activity calls are given as the source filed them. Rule as the data show it: active = GI50 up to about 1.1 µM and inactive = higher.
Outcomes: TRUE (active), FALSE (inactive)

INSERT INTO results (molecule, class_label) VALUES
  ('CCCCCCOc1ccc(NC2=C(Cl)C(=O)c3ncccc3C2=O)cc1', 'FALSE'),
  ('O=C1CCCC2C(O)CCC[C@H]12 (stereo partly specified)', 'FALSE'),
  ('CN(C)CN1CSC(=S)N(CN(C)C)C1', 'FALSE'),
  ('CC(C)CCNC(=O)c1ccc(CNC(=O)/C=C/c2ccc3c(c2)-c2ccccc2C3)cc1', 'FALSE'),
  ('O=C(O)C12CCCCC1CCCC2 (stereo unspecified)', 'FALSE'),
  ('CN(C)/C=N/Cc1ccc2c(c1)OCO2', 'FALSE'),
  ('COC(=O)c1cc2c(cc1C(=O)OC)[C@@]1(C)CCCC(C)(C)C1CC2 (stereo partly specified)', 'FALSE'),
  ('Cc1ccc(NC(=O)C23CC4CC(CC(C4)C2)C3)c(C(=O)NNC(=O)c2ccc(Cl)cc2)c1', 'TRUE'),
  ('O=C(Nc1ccc(Cl)cc1)NS(=O)(=O)c1coc2ccccc2c1=O', 'FALSE'),
  ('COc1ccc(N2C(=O)C3c4[nH]c5ccc(C)cc5c4C4CCC(c5ccccc5)CC4C3C2=O)cc1 (stereo unspecified)', 'FALSE'),
  ('CCOC(=O)c1ccc(NC2Oc3cc4c(cc3C(c3cc(OC)c(OC)c(OC)c3)C2C)OCO4)cc1 (stereo unspecified)', 'TRUE'),
  ('CC(C)(C)NC1C2CCC(C)(C1O)C2(C)C (stereo unspecified)', 'TRUE'),
  ('CCOC(=O)c1c(N2CCCC2)[nH]c(=O)c(C(c2ccc(OC)cc2)c2c(O)c(C(=O)OCC)c(N3CCCC3)[nH]c2=O)c1O', 'FALSE'),
  ('N#CC(Cc1ccccc1Br)N(CCC1=CCCCC1)C(c1ccccc1)c1ccccc1 (stereo unspecified)', 'FALSE'),
  ('O=[N+]([O-])c1cccc(Nc2nc(Cl)nc(Cl)n2)c1', 'FALSE'),
  ('Cc1ccc(C)c(NC(=O)C(=O)C(c2cnc3ccc([N+](=O)[O-])cc3n2)[N+](=O)[O-])c1 (stereo unspecified)', 'FALSE'),
  ('O=C(/C=N/O)c1c(-c2ccccc2)[nH]c(-c2ccccc2)c1-c1ccccc1', 'FALSE'),
  ('COc1ccc(S(=O)(=O)N/N=C/CN2C(=O)c3ccccc3C2=O)cc1', 'FALSE'),
  ('CC(=O)OCC1OC(n2c3c(c(-c4ccco4)c(C#N)c2=S)CCC3)C(OC(C)=O)C(OC(C)=O)C1OC(C)=O (stereo unspecified)', 'FALSE'),
  ('CC(=O)N/N=C1/CC[C@@]2(C)C(=CC[C@H]3C4CCC(C(C)CCCC(C)C)[C@@]4(C)CCC32)C1(C)C (stereo partly specified)', 'FALSE'),
  ('Cc1csc2c(=O)n(COCc3ccccc3)c(=O)[nH]c12', 'FALSE'),
  ('Nc1ncnc2c1ncn2-c1ccc([N+](=O)[O-])cn1', 'FALSE'),
  ('N#Cc1cccc2c1Sc1ccccc1N2', 'FALSE'),
  ('O=C(CC(=O)c1ccncc1)c1ccccc1', 'FALSE'),
  ('COc1cc(CNC2=NCCC2)cc(OC)c1OC', 'FALSE'),
  ('Oc1c2c(c(O)c3ccccc13)C1(N=N2)c2ccccc2Oc2ccccc21', 'FALSE'),
  ('Cc1cc(Br)ccc1NC1=CC(=O)C(=O)c2ccccc21', 'FALSE'),
  ('Cc1nc2ccccc2n1C(=O)c1c(F)c(F)c(F)c(F)c1F', 'FALSE'),
  ('CC(=O)Nc1ccc(C2[C@H]3C(=O)N(c4ccc(Cc5ccc(N6C(=O)[C@@H]7ON(c8ccccc8)C(c8ccc(NC(C)=O)cc8)[C@@H]7C6=O)cc5)cc4)C(=O)[C@H]3ON2c2ccccc2)cc1 (stereo partly specified)', 'FALSE'),
  ('C[N+](C)([O-])CCOc1cc2c(c3ccccc13)-c1ccccc1C2=O', 'FALSE'),
  ('C[C@@H](c1ccccc1)N1CN(C(=O)OCc2ccccc2)C(C)(C)CC1=O', 'FALSE'),
  ('N=C(N)N/N=C/c1c(-c2cccc([N+](=O)[O-])c2)nc2n1CCS2', 'FALSE'),
  ('c1ccc(-c2cs[s+]c2)cc1', 'FALSE'),
  ('Cc1nc(Nc2ccc(Cl)c(Cl)c2)sc1C(/C=C/c1ccc2c(c1)OCO2)=N/Nc1ccc([N+](=O)[O-])cc1[N+](=O)[O-]', 'FALSE'),
  ('N#CCc1n[nH]c2nc(SCc3ccccc3)nc(N3CCCCC3)c12', 'FALSE'),
  ('COc1cc(/C=C2\CCc3ccccc3C2=O)cc(OC)c1OC', 'FALSE'),
  ('CCC(=O)Nc1ccc(NS(=O)(=O)c2ccc(Cl)cc2)cc1', 'FALSE'),
  ('COc1ccc(C(Cc2cc(OC)c(OC)c(OC)c2)C(=O)O)cc1 (stereo unspecified)', 'FALSE'),
  ('COc1ccc(N2C(=O)/C(=C/c3ccc(N(CCC#N)CCC#N)cc3C)N=C2c2cc([N+](=O)[O-])ccc2Cl)cc1', 'FALSE'),
  ('Cc1ccc(C(O)c2cnc(C)n2Cc2ccccc2)cc1 (stereo unspecified)', 'FALSE'),
  ('O=c1oc2ccc3ccccc3c2cc1-c1cn2ccsc2n1', 'FALSE');
